src = patent US12398154B2

target: KRas G12V (Homo sapiens, UniProt P01116, G12V); assay: biochemical;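 further: KRas binding measured by TR-FRET displacement at room temperature, IC50 fitted from percent of control values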
Sequence (P01116 1-169 isoform P01116-2 G12V): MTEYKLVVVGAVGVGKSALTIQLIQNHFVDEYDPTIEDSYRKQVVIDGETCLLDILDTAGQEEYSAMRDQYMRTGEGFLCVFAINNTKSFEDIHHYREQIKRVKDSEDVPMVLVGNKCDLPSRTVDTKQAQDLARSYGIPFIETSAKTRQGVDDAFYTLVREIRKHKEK
observable: IC50 (nM)
The reply should contain only the number, in nM.

Please review the following examples before continuing.
C#Cc1c(F)ccc2cc(O)cc(-c3ncc4c(N5CCCC6(CNC6=O)C5)nc(OC[C@@]56CCCN5C[C@H](F)C6)nc4c3F)c12 (stereo partly drawn) | 3
CCc1c(F)ccc2cc(O)cc(-c3ncc4c(NCCC5CCNC5=O)nc(OC[C@@]56CCCN5C[C@H](F)C6)nc4c3F)c12 (stereo partly drawn) | 8

The record that follows has no IC50 shown yet.
If you can, please state the reported IC50 value of CNc1cc2n(n1)CCCN(c1nc(OCC34CCCN3CCC4)nc3c(F)c(-c4cccc5cccc(F)c45)ncc13)C2 . 4030
